I'd be grateful if you could share measured SPOT intensity for these entries.
- system_tested: T1, Fus1, P11710
- T1 sequence (P11710 432-512, looked up): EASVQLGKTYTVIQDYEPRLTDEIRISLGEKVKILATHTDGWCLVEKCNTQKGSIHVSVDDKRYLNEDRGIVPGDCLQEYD
- assay_info: SPOT array
- measurement_parameters: median of control spots 1200
One number for each entry.

Recorded SPOT intensity, per entry:
EEEEEHPPLPARRKS = 0
LKVTPGRRAPTISKI = 0
RRTRLRPPTPLSQLL = 17
NLPKRKPPKLQGPFS = 6

Moving on to the next binder.
Field request: SPOT intensity | item: KRKRRLPVSEDTNTK
150
